assay.method.text: Microsomal stability in human liver microsomes assessed as half life
measurement.context: microsomes
metric.name: half-life (h)

INSERT INTO assay_data (compound, unit_string, quantitative_result) VALUES
  ('CCP(=O)(OC)c1ccc2oc(-c3ccc(F)cc3)nc2c1 (racemic)', 'h', 6.38),
  ('CCS(=O)(=O)c1ccc2oc(-c3ccc4ccccc4c3)nc2c1', 'h', 1.6);

* * *

Listing: AUC of selected molecules
measurement.context: mouse, in vivo, po, 5 mg/kg, 168 h
metric.name: AUC (ng·h/mL)

INSERT INTO results (molecule, metric_name, quantitative_result) VALUES
  ('CCP(=O)(OC)c1ccc2oc(-c3ccc(F)cc3)nc2c1 (single isomer, unassigned; (-))', 'AUC', 513),
  ('CCP(=O)(OC)c1ccc2oc(-c3ccc(F)cc3)nc2c1 (single isomer, unassigned; (+))', 'AUC', 1620),
  ('CCP(=O)(OC)c1ccc2oc(-c3ccc(F)cc3)nc2c1 (racemic)', 'AUC', 1160);

* * *

assay.method.text: Intrinsic clearance in human liver microsomes
measurement.context: liver microsomes
metric.name: microsomal CLint (µL/min/mg)

INSERT INTO assay_data (molecule, quantitative_result) VALUES
  ('CCOP(=O)(CC)c1ccc2oc(-c3ccc(F)cc3)nc2c1 (stereo unspecified)', 2.41);

* * *

measurement.context: mouse, in vivo, po, 5 mg/kg, 24 h
metric.name: AUC (ng·h/mL)

INSERT INTO results (compound, quantitative_result) VALUES
  ('CCP(=O)(OC)c1ccc2oc(-c3ccc(F)cc3)nc2c1 (single isomer, unassigned; (-))', 444),
  ('CCP(=O)(OC)c1ccc2oc(-c3ccc(F)cc3)nc2c1 (single isomer, unassigned; (+))', 1570),
  ('CCP(=O)(OC)c1ccc2oc(-c3ccc(F)cc3)nc2c1 (racemic)', 1660);

* * *

Listing: fraction unbound of selected molecules
assay.method.text: Plasma protein binding in mouse
metric.name: fraction unbound

INSERT INTO assay_data (molecule, lt_gt_eq, quantitative_result) VALUES
  ('CCP(=O)(OC1CC1)c1ccc2nc(-c3cccc(C(F)(F)F)c3)oc2c1 (stereo not given)', '=', 0.01),
  ('CCP(=O)(OC)c1ccc2nc(-c3cnc4ccccc4c3)oc2c1 (stereo not given)', '=', 0.23),
  ('CCS(=O)(=O)c1ccc2oc(-c3ccc4ccccc4c3)nc2c1', '<', 0.01),
  ('CCOP(=O)(CC)c1ccc2oc(-c3ccc(F)cc3)nc2c1 (stereo not given)', '=', 0.16),
  ('COP(=O)(c1ccc2nc(-c3ccc(F)cc3)oc2c1)C(C)C (stereo not given)', '=', 0.17);

* * *

assay.method.text: Microsomal stability in mouse liver microsomes assessed as half life
measurement.context: liver microsomes
Listing: half-life of selected compounds
metric.name: half-life (min)

INSERT INTO measurements (compound, metric_name, lt_gt_eq, quantitative_result) VALUES
  ('COP(=O)(c1ccc2nc(-c3ccc(F)cc3)oc2c1)C(C)C (stereo not drawn)', 'half-life', '=', 27),
  ('CCOP(=O)(CC)c1ccc2oc(-c3ccc(F)cc3)nc2c1 (stereo not drawn)', 'half-life', '=', 36),
  ('CCP(=O)(OC)c1ccc2nc(-c3cnc4ccccc4c3)oc2c1 (stereo not drawn)', 'half-life', '>', 4400);

* * *

assay.method.text: Intrinsic clearance in mouse liver microsomes
measurement.context: liver microsomes
metric.name: microsomal CLint (µL/min/mg)

INSERT INTO assay_data (molecule, metric_name, quantitative_result) VALUES
  ('CCOP(=O)(CC)c1ccc2oc(-c3ccc(F)cc3)nc2c1 (stereo unspecified)', 'microsomal CLint', 39.1);

* * *

Listing: hepatocyte CLint of selected compounds
assay.method.text: Intrinsic clearance in mouse hepatocytes assessed per 10^6 cells
metric.name: hepatocyte CLint (µL/min/1e6 cells)

INSERT INTO results (compound, metric_name, unit_string, lt_gt_eq, quantitative_result) VALUES
  ('CCP(=O)(OC1CC1)c1ccc2oc(-c3cccc(C(F)(F)F)c3)nc2c1 (centres undefined)', 'hepatocyte CLint', 'µL/min/1e6 cells', '=', 8.65),
  ('CCP(=O)(O)c1ccc2oc(-c3cccc(C(F)(F)F)c3)nc2c1', 'hepatocyte CLint', 'µL/min/1e6 cells', '<', 2.89),
  ('CCP(=O)(OC1CCC1)c1ccc2oc(-c3cccc(C(F)(F)F)c3)nc2c1 (centres undefined)', 'hepatocyte CLint', 'µL/min/1e6 cells', '=', 32.8),
  ('CCP(=O)(OC1CC1)c1ccc2nc(-c3cccc(C(F)(F)F)c3)oc2c1 (centres undefined)', 'hepatocyte CLint', 'µL/min/1e6 cells', '=', 8.92);

* * *

assay.method.text: Apparent permeability from basolateral to apical side in human Caco2
measurement.context: Caco-2
Listing: Papp B→A of selected compounds
metric.name: Papp B→A (×10⁻⁶ cm/s)

INSERT INTO results (compound, unit_string, quantitative_result) VALUES
  ('CCP(=O)(OC1CC1)c1ccc2oc(-c3cccc(C(F)(F)F)c3)nc2c1 (configuration not stated)', '×10⁻⁶ cm/s', 5.75),
  ('CCP(=O)(OC1CCC1)c1ccc2oc(-c3cccc(C(F)(F)F)c3)nc2c1 (configuration not stated)', '×10⁻⁶ cm/s', 3.98);

* * *

assay.method.text: in vivo
measurement.context: mdx, mouse, iv, 1 mg/kg
metric.name: Cmax (ng/mL)

INSERT INTO assay_data (molecule, quantitative_result) VALUES
  ('CCP(=O)(OC)c1ccc2oc(-c3ccc(F)cc3)nc2c1 (racemic)', 562);

* * *

assay.method.text: Stability in mouse hepatocytes assessed as half life
Listing: half-life of selected compounds
metric.name: half-life

INSERT INTO measurements (compound, metric_name, result) VALUES
  ('CCP(=O)(OC1CCC1)c1ccc2oc(-c3cccc(C(F)(F)F)c3)nc2c1 (centres undefined)', 'half-life', '0.35 h'),
  ('CCP(=O)(OC1CC1)c1ccc2oc(-c3cccc(C(F)(F)F)c3)nc2c1 (centres undefined)', 'half-life', '1.33 h'),
  ('CCP(=O)(O)c1ccc2oc(-c3cccc(C(F)(F)F)c3)nc2c1', 'half-life', '4 h'),
  ('CCP(=O)(OC1CC1)c1ccc2nc(-c3cccc(C(F)(F)F)c3)oc2c1 (centres undefined)', 'half-life', '1.3 h');

* * *

Listing: pEC50 of selected compounds
target.system: 5-hydroxytryptamine receptor 2B (Homo sapiens, UniProt P41595)
Sequence (P41595 whole entry): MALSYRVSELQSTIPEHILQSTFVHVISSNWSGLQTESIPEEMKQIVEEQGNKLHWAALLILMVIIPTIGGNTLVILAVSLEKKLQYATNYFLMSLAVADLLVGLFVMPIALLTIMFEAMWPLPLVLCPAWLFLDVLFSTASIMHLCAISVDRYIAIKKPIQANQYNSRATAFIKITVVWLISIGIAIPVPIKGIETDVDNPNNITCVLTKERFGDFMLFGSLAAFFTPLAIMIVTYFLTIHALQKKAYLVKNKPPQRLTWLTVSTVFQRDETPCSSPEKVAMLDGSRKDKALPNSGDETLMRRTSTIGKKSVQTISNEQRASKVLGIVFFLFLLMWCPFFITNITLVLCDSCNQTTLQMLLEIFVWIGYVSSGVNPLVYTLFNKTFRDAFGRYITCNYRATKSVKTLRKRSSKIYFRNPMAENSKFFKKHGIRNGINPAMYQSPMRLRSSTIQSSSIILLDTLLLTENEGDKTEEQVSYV
assay.method.text: Antagonist activity at human Gq-coupled 5HT2B receptor expressed in HEK293 cells assessed as inhibition of serotonin-induced calcium mobilization by calcium-sensitive dye based FLIPR assay
pEC50: −log10 of the molar value.
metric.name: pEC50

INSERT INTO assay_data (compound, quantitative_result) VALUES
  ('CCP(=O)(OC)c1ccc2oc(-c3ccc(F)cc3)nc2c1 (single isomer, unassigned; (+))', 5.03),
  ('CCP(=O)(OC)c1ccc2oc(-c3ccc(F)cc3)nc2c1 (single isomer, unassigned; (-))', 4.30);

* * *

Listing: Papp A→B of selected molecules
assay.method.text: Apparent permeability from apical to basolateral side in human Caco2
measurement.context: Caco-2
metric.name: Papp A→B (×10⁻⁶ cm/s)

INSERT INTO measurements (molecule, quantitative_result) VALUES
  ('CCP(=O)(OC1CCC1)c1ccc2oc(-c3cccc(C(F)(F)F)c3)nc2c1 (configuration not stated)', 6.38),
  ('CCP(=O)(OC1CC1)c1ccc2oc(-c3cccc(C(F)(F)F)c3)nc2c1 (configuration not stated)', 10.6);

* * *

assay.method.text: Solubility of compound by turbidimetric assay
Listing: solubility kinetic of selected compounds
metric.name: solubility kinetic

INSERT INTO measurements (compound, metric_name, result) VALUES
  ('CCS(=O)(=O)c1ccc2oc(-c3ccc4ccccc4c3)nc2c1 [EZUTROMID]', 'solubility kinetic', '3 to 10 µM'),
  ('CC(C)C(=O)Nc1ccc2oc(-c3ccc4ccccc4c3)nc2c1', 'solubility kinetic', '1 to 3 µM'),
  ('CCP(=O)(OC)c1ccc2oc(-c3ccc(F)cc3)nc2c1 (racemic)', 'solubility kinetic', '> 100 µM'),
  ('COP(=O)(c1ccc2nc(-c3ccc(F)cc3)oc2c1)C(C)C (stereo not drawn)', 'solubility kinetic', '> 100 µM'),
  ('CCP(=O)(OC)c1ccc2nc(-c3cnc4ccccc4c3)oc2c1 (stereo not drawn)', 'solubility kinetic', '> 100 µM'),
  ('CCOP(=O)(CC)c1ccc2oc(-c3ccc(F)cc3)nc2c1 (stereo not drawn)', 'solubility kinetic', '> 100 µM'),
  ('O=S1(=O)CCCN1c1ccc2oc(-c3ccc4ccccc4c3)nc2c1', 'solubility kinetic', '3 to 10 µM'),
  ('CC(=O)Nc1ccc2oc(-c3ccc4ccccc4c3)nc2c1', 'solubility kinetic', '3 to 10 µM');
